- target: T1, hIL-18Rα ECD-Fc fusion protein (human, UniProt Q13478 22-329)
- T1 construct: extracellular domain; captured on Protein A sensor
- T1 sequence (looked up): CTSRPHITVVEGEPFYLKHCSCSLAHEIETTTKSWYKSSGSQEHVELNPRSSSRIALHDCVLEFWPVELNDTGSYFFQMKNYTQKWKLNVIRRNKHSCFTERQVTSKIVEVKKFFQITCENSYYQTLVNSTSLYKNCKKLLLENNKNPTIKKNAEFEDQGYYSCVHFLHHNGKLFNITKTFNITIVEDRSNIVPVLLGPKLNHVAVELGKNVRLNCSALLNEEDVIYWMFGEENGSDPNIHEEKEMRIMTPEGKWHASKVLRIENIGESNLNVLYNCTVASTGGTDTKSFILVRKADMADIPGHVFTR
- test: BLI (Octet RED96), hIL-18Rα ECD-Fc on Protein A sensor
measurement_kind: kon (M⁻¹ s⁻¹)
One number for each entry, in M⁻¹ s⁻¹.

Example cases with answers are listed next.
IL-18 variant polypeptide M23 (ligand) YFPKLRSKLSVIRNLNDQVLFIDQGNRPLFEDMTDSDCRDNAPRTIFIISMYKYSTRRGMAVTISVKCEKISTLSCENKIISFKEMNPPDNIKDTKSDIIFFQRSVPGHDNKMQFESSSYEGYFLACEKERDLFKLILKKEDELGDRSIMFTVQNED = 82300
IL-18 variant polypeptide M33 (ligand) YFEKLHSKLSVIRNLNDQVLFIDQGNRPLFEDMTDSDCRDNAPRTIFIISMYKRSTHRGMAVTISVKCEKISTLSCENKIISFKEMNPPDNIKDTKSDIIFFQRSVPGHDNKMQFESSSYEGYFLACEKERDLFKLILKKEDELGDRSIMFTVQNED = 161000

Let us move to another entry and its kon.
Sample IL-18 variant polypeptide M14 (ligand) YFNKLKSKLSVIRNLNDQVLFIDQGNRPLFEDMTDSDCRDNAPRTIFIISMYKPSSSRGMAVTISVKCEKISTLSCENKIISFKEMNPPDRIKDTKSDIIFFQASVPGHDNKMQFESSSYEGYFLACEKERDLFKLILKKEDELGDRSIMFTVQNED — what was its kon?
250000
